Answer each item with its documented growth inhibition.
- Method Summary: NCI Yeast Anticancer Drug Screen. Data for the mec2-1 strain (AID 157)
- Assay Conditions: S. cerevisiae mec2-1 strain, at 50.0 µM, active compounds read high
The panel holds about 79,000 compounds, 15% with a hit somewhere; the sample as a whole holds those more often.
One number for each entry, in %.

CC(NC(=O)C(N)CCC(=O)O)C(=O)NCP(=O)(O)O (stereo unspecified); -49
CCCCCCCCCCCCCCCC1=NN(c2ccccc2)C(=O)C1N=Nc1ccccc1 (stereo unspecified); -8.95
CC1CCN(CCOC(=O)c2ccc(OC(C)C)cc2)C1 (stereo unspecified); 12.6
CCc1cccc(C(C)C)c1NC(=O)C(=O)C(CC(=O)Nc1ccc(Cl)c(Cl)c1)C(=O)OC (stereo unspecified); 3.6
CCCCc1cccc2c1OCO2; -0.6

Dear colleague, could you please provide growth inhibition for the compounds listed below?
1. O=c1[nH]c2ccccc2c(N=Cc2ccccc2)c1-c1ccccc1
2. CC1(O)CCC(O)CC1CC[N+](C)(C)[O-] (stereo unspecified)
3. CCOC(=O)c1sc(SC)nc1NC(=O)c1ccc(OC)cc1
4. O=C1NC(CN2CCCCC2)C(=O)NC1CN1CCCCC1 (stereo unspecified)
5. O=C(COc1cccc(Cl)c1)Nc1cccc(S(=O)(=O)O)c1 (tested in a mixture with another compound)
6. COC(=O)C(NC(=O)C(CC(=O)OC(C)(C)C)NC(=O)OC(C)(C)C)C(O)c1ccccc1 (stereo unspecified)
7. CC1(C)OC2OC(CNC(=O)c3ccccc3)C(O)C2O1 (stereo unspecified)

Resp:
1. -20.6
2. 1.3
3. 21.7
4. -13.4
5. -7.65
6. -23.9
7. -4.4

Dear colleague, could you please provide growth inhibition for the compounds listed below?
1. NC(=O)CNCc1ccccc1
2. OCCCCN1CCCCC1
3. C[n+]1cccc(NC(=O)COc2ccc(Cl)c(Cl)c2)c1

Resp:
-3.75
-1.95
3.95
